These data points were gathered from the Immune Epitope Database (IEDB).

target: HLA-B*27:05; assay: IEDB peptide-MHC binding, purified MHC/direct/fluorescence; filed as Kd, often an IC50 or EC50 that approximates it; bounds were set here for any values at or beyond the usual limits of such assays; settings: source organism: Influenza A virus (A/tiger/Thailand/CU-T6/04(H5N1))
measured.attribute: Kd

Q: Can you share its Kd? I mean this sequence: TYQWIIRNW
Ans: ≥ 20 µM

* * *

target: HLA-B*07:02; assay: IEDB peptide-MHC binding, purified MHC/direct/fluorescence; filed as Kd, often an IC50 or EC50 that approximates it; bounds were set here for any values at or beyond the usual limits of such assays; details: source organism: Salmonella enterica subsp. enterica serovar Typhimurium
measured.attribute: Kd

Q: For the sequence shown here, WPVMQWLTA , give the reported Kd.
Ans: 289 nM
